# assay-name: Growth inhibition of human MCF7 cells after 72 hrs by MTT assay
# Format: functional, cell-based
# test-conditions: MCF7, 72 h
// boundary case: IC50 equal to 3 µM maps to label 0; strictly smaller maps to label 1

Enquiry: Strictly below 3 µM in IC50? C[C@]12CC[C@H](O)CC1=CC[C@@H]1[C@@H]2CC[C@]2(C)C(c3cccnc3)=CC[C@@H]12
Return: label 0

Enquiry: Strictly below 3 µM in IC50? C[C@]12CC[C@H](O)CC1=CC[C@@H]1[C@@H]2CC[C@]2(C)C(c3nn(-c4ccccc4)cc3CO)=CC[C@@H]12
Return: label 0

Enquiry: Strictly below 3 µM in IC50? COc1ccc(-n2cc(C=O)c(C3=CC[C@H]4[C@@H]5CC=C6C[C@@H](O)CC[C@]6(C)[C@H]5CC[C@]34C)n2)cc1
Return: label 0

Enquiry: Strictly below 3 µM in IC50? C[C@]12CC[C@H](O)CC1=CC[C@@H]1[C@@H]2CC[C@]2(C)C(c3nn(-c4ccc(C#N)cc4)cc3CO)=CC[C@@H]12
Return: label 1

Enquiry: Strictly below 3 µM in IC50? C[C@]12CC[C@H](O)CC1=CC[C@@H]1[C@@H]2CC[C@]2(C)C(c3nn(-c4ccccc4)cc3C=O)=CC[C@@H]12
Return: label 0
